Tested on: HL-60
Assay: NCI tumour cell line growth inhibition, 48 h
The campaign covered roughly 53,000 sequences. About 5,500 (10%) were called active. This excerpt belongs to a sample that is enriched for actives. Results with a measured potency or affinity are listed apart.
parameter_measured: GI50 (nM)
Numeric only. Scale: nM

IN: Would you mind telling me what GI50 value was observed for mu-(1,7-nanodiamine-N,N')bis-(cis-aminedichloroplatimum (II)), CHEMBL2146215 ?
OUT: 1640

IN: Proceed to [Bis(aminomethyl)dimethylsilane]dichloroplatinum (II), CHEMBL2146201
OUT: 1300

IN: Proceed to cis-Bis[[(trimethylsilyl)methyl]amino]tetrachloroplatinum(IV), CHEMBL2146191
OUT: 1760

IN: Proceed to [Bis(aminomethyl)tetramethylenesilane]dichloropaltinum(II), CHEMBL2146205
OUT: 1570

----------
# GI50 per record follows
System: HL-60
Assay: NCI tumour cell line growth inhibition, 48 h
Among all 53,000 sequences or so, about 5,500 (10%) were called active. The sample as a whole holds a higher share of actives than the screen did. Potency and affinity values are given separately.
Numeric only. Scale: nM

Field: example entries. Status: answers known.
[
  {
    "substance": "[Bis(aminomethyl)dimethylsilane]tetrachloroplatinum(IV), CHEMBL2146190",
    "result_unit": "nM",
    "GI50": 248
  },
  {
    "substance": "[Bis(aminomethyl)ethylmethylsilane]tetrachloroplatinum(IV), CHEMBL2146192",
    "result_unit": "nM",
    "GI50": 156
  },
  {
    "substance": "[Bis(aminomethyl)pentamethylenesilane]dichloropaltinum(II), CHEMBL2146202",
    "result_unit": "nM",
    "GI50": 51.3
  }
]

Please look at the following substance next.
IN: Would you mind telling me what GI50 value was observed for ACRIFLAVINE HYDROCHLORIDE, CHEMBL5219995 ?
OUT: 333
